The compounds listed here are annotated with their activity coefficient.
Experiment: activity coefficient (dimensionless); of the first substance listed, at infinite dilution; xn = mol fraction of the nth substance listed
Conditions: 333.15 K; Liquid; Chromatography; x1 = 0
readout_kind: activity coefficient

# compound, readout_kind, experimental_result
records = [
    ("CCc1ccccc1 [ethylbenzene] + CCCCCCn1cc[n+](C)c1.O=S(=O)([O-])C(F)(F)F", "activity coefficient", 3.04),
    ("c1ccccc1 [benzene] + CCCCCCn1cc[n+](C)c1.O=S(=O)([O-])C(F)(F)F", "activity coefficient", 1.55),
    ("Cc1ccc(C)cc1 [1,4-dimethylbenzene] + CCCCCCn1cc[n+](C)c1.O=S(=O)([O-])C(F)(F)F", "activity coefficient", 2.97),
    ("CC1CCCCC1 [methylcyclohexane] + CCCCCCn1cc[n+](C)c1.O=S(=O)([O-])C(F)(F)F", "activity coefficient", 13.8),
    ("CC(C)CC(C)(C)C [2,2,4-trimethylpentane] + CCCCCCn1cc[n+](C)c1.O=S(=O)([O-])C(F)(F)F", "activity coefficient", 26.3),
    ("CCCCCCCCC [nonane] + CCCCCCn1cc[n+](C)c1.O=S(=O)([O-])C(F)(F)F", "activity coefficient", 42.3),
    ("Cc1ccccc1C [1,2-dimethylbenzene] + CCCCCCn1cc[n+](C)c1.O=S(=O)([O-])C(F)(F)F", "activity coefficient", 2.64),
    ("CCCCC [pentane] + CCCCCCn1cc[n+](C)c1.O=S(=O)([O-])C(F)(F)F", "activity coefficient", 14.3),
    ("CCCCCC [hexane] + CCCCCCn1cc[n+](C)c1.O=S(=O)([O-])C(F)(F)F", "activity coefficient", 20.9),
]

All values here come from the NIST ThermoML archive (doi:10.1021/je800043a).
